Biological target: T1, recombinant canine OX40L ECD-TNCc-HIS protein (canine)
T1 construct: also called Trimeric OX40L probe (HIS tag); trimeric canine OX40L
T1 chain: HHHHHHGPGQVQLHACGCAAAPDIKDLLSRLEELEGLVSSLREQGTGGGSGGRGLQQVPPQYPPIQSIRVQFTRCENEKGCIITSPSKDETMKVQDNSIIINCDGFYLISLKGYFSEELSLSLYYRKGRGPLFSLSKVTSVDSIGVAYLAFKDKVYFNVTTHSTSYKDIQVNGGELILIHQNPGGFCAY
Assay: SPR Koff (kd2)
Procedure: Affinity (Kd) of OX40L antibodies is measured by SPR, using a recombinant canine OX40L ECD-TNCc-HIS protein (Seq ID 811) as the capturing agent (FIG. 5B). Functional affinity is determined using a Biakore 8K (Cytiva). in brief, purified OX40L ECD-TNCc-HIS protein is covalently bound at low density to the surface of a CM5 sensor chip (Cytiva) by amine coupling, using the manufacturer's recommended protocol. […]
Catalogue of koff values
Field format: number, assumed s⁻¹, no unit text.

binder="PMX059 (antibody, V domains shown, also called PMX59) VH: EVHLVESGGDLVKPEGSLRLSCVVSGFTFSNYVMNWVRQAPGKGLQWVAFISGDGRSTTYTDAVKSRFTISRDNAKNTLYLQMSSLRTEDTAIYFCAKEKYSSGWSFEYWGQGTLVTVSS VL: SYVLTQLPSKNVTLKQPAHITCGGDNIGSKSVHWYQQKLGQAPVLIIYYDSSRPTGIPERFSGANSGNTATLTISGALAEDEADYYCQVWDSSASVFGGGTHLTVL" property=koff endpoint_value=0.00737
binder="PMX154 (antibody, V domains shown) VH: EVQLVESGGDLVKPEGSLRLSCVVSGFTFSGFDMSWVRQAPGKGLQWVAYISTDGRSTGYTDAVKGRFTISRDNVKNTLYLQMNSLRTEDTAVYYCAKETRHWGFDYWGQGTLVIVSS VL: SYVLTQLSSVSVSLRQTAHITCGGDSIGRKNVYWHQQKLGRAPILIIYDDSSRPSGIPERFSGANSGNTATLTISGALAEDEAAYYCQVWDSSTSVFGGGTHLTVL" property=koff endpoint_value=6.94
binder="PMX048 (antibody, V domains shown, also called PMX48) VH: EVQLVESGGDLVKPGGSLRLSCVASGFTFNNYEMYWVRQAPGKGLEWVARIYESGTTTYSAEADTGRFTISRDNAKNMVFLQMNSLRAEDTAVYYCASASSSTWRFDYWGQGTLVTVSS VL: SYVLTQLPSVSVTLGQTARITCGGDSIGRKNVYWFQQKLGQAPVLIIYDDRSRPSGIPERFSGANSGNTATLTISGALAEDEADYYCQVWDSSTGVFGGGTHLTVL" property=koff endpoint_value=21
binder="PMX032 (antibody, V domains shown, also called PMX32) VH: EVQLVESGGDLVKPGGSLRLSCVASGFTFSSYHMSWVRQAPGKGLQWVAYITSGGRTTSYADAVKGRFIISRDNAKNTLYLQMNSLRAEDTAVYYCASDLVLILGGADYWGQGTLVTVSS VL: SYELTQPPSVNVTLRETAHITCGGDSIGRKYVQWIQQNPGQAPVVIIYKDNNRPTGIPERFSGANSGNTATLTISGALAEDEADYYCQVGDSGSKAVFGGGTHLTVL" property=koff endpoint_value=1.71e-05

Now, please, on to the next binder.
Which koff is reported for this binder? PMX057 (antibody, V domains shown, also called PMX57) VH: EVQLVESGGDLVKPEGSLRLSCVVSGFTFNNYGMSWVRQAPGKGLQWVAYISIDGRSTSYTDAVKGRFTISRDNAKNTLYLHINSLRTEDTAVYYCTKLGRGFTFGYWGQGTLVTVSS VL: SYVLTQLPSKNVTLKQPAHITCGGDNIGSKSVHWYQQKLGQAPALIIYYDSSRPTGIPERFSGANSGNTATLTISGALAEDEADYYCQVWDSSVSVFGGGTHLTVL
0.22

Hello, the source for this data is patent US20250340659A1, in case you need it.
